- assayNotes: chemical genetic growth profiling, strain panel (AID 1159580);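 note: tested at 20 µM; growth read once vehicle control cultures reached saturation at 30 °C; 1 = growth at the plate median or of vehicle wells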
- assaySetup: S. cerevisiae deletion strains, growth OD, locus YMR205C, strain PFK2 (second series), hits give low values
Among all 5,500 compounds or so, about 2,000 (36%) were called active. Another 18% or so got no clear call; they are omitted. Some of the results follow.
Lab note - cut at 0.9 for normalized growth: true (1) if strictly below, false (0) if not.

Here's what some known entries look like.
C/C(=N/NC(=S)NCC(C)(C)C)c1cc(F)cc(Cl)c1O false (0)
Nc1ccccc1C(=O)Nc1cc(C(F)(F)F)cc(C(F)(F)F)c1 false (0)

Asked: Lab log: compare recorded normalized growth with 0.9; is it strictly lower for CNC(=O)Sc1c(-c2ccc(Cl)cc2)nn(C(=O)NC)c1SC ?
Given back: true (1)

Asked: Strictly below 0.9 in normalized growth? Cc1ccccc1/C=C/c1c[nH]c2ccccc12
Given back: false (0)

Asked: # check: normalized growth < 0.9 for O=S(=O)(NCc1ccc(C(F)(F)F)cc1)c1cc(Br)c(Br)s1
Given back: true (1)

Asked: In plain terms, does O=S(=O)(NCc1ccc(C(F)(F)F)cc1)c1cccc(C(F)(F)F)c1 come in under 0.9 for normalized growth?
Given back: false (0)

Asked: I wonder whether O=C(Nc1ccncc1)c1cc(-c2ccccc2)oc1C(F)(F)F has normalized growth below 0.9. Can you tell?
Given back: false (0)

Asked: normalized growth strictly < 0.9 for this compound? O=S(=O)(NCc1cc(Cl)cc(Cl)c1)c1cc(C(F)(F)F)cc(C(F)(F)F)c1
Given back: false (0)

Asked: Consider the compound O=C(NNc1ccccc1)c1cc(-c2ccc(Cl)cc2)oc1C(F)(F)F . Is its normalized growth strictly less than 0.9?
Given back: true (1)

====

- assayNotes: chemical genetic growth profiling, strain panel (AID 1159580)
- assaySetup: S. cerevisiae deletion strains, growth OD, locus YMR277W, strain FCP1
Out of some 5,500 compounds screened, about 2,000 (36%) were called active. Not shown: some 18% with an inconclusive outcome. Cut-off read from the data, not from the text of the source: active = normalized growth mostly below about 0.91 (no sharp cut-off); inconclusive = no clear call, values can overlap the other calls; inactive = mostly above about 0.92. Some of the results follow.
Thanks in advance; please answer with one of these: active, inactive

Asked: Short answer needed: outcome of this test for Nc1ccccc1C(=O)Nc1cc(C(F)(F)F)cc(C(F)(F)F)c1 ?
Given back: inactive

Asked: Per the assay record, what outcome was assigned to O=C(Oc1ccc2ccccc2c1C1SCCS1)c1ccc([N+](=O)[O-])o1 ?
Given back: inactive

Asked: State the result this test recorded for Clc1cc(Cl)cc(C=NCc2ccccc2)c1 .
Given back: inactive

Asked: Tell me the recorded outcome of this test for N#Cc1cccc(CSc2nc3ccc(C(F)(F)F)cc3[nH]2)c1 .
Given back: inactive

Asked: Hi team, can someone confirm the assay call for Brc1ccc(-c2csc(-c3cccnc3)n2)cc1 ?
Given back: active

====

- assayNotes: chemical genetic growth profiling, strain panel (AID 1159580)
- assaySetup: S. cerevisiae deletion strains, growth OD, locus YKL190W, strain CNB1, hits give low values
Screen size: about 5,500 compounds; about 2,000 (36%) were called active. Inconclusive results (about 18%) are left out. This is one part of the list.
attributeMeasured: normalized growth
// no unit string in output, number only

compound	normalized growth
O=C1CCCCC/C=C/CCCCCCCCO1	1

Asked: Identify the reported normalized growth for the following entry. CC(=O)OC1CC(OC(C)=O)C2(C)C(CC(OC(C)=O)C3(C)C2CCC2(C)C(c4ccoc4)OC(=O)C4OC423)C1(C)C (stereo unspecified)
Given back: 1

Asked: Provide measured normalized growth value, entry: S=C1NC2(CCCCC2)NN1c1ccccc1
Given back: 0.0617

Asked: Indicate the recorded normalized growth value for this compound: COc1c(C)c2c(c(O)c1C/C=C(\C)CCC(=O)O)C(=O)OC2
Given back: 0.921

Asked: Note down normalized growth recorded for CC(=O)NC(CCC(=O)O)C(=O)O (stereo unspecified)
Given back: 0.99

Asked: Output measured normalized growth for this item: NC(N)=NCCCCN=C(N)N
Given back: 0.985

Asked: Please give measured normalized growth of the following entry: COc1ccc2c(c1)OCC(Cc1ccc(OC)c(O)c1)C2=O (stereo unspecified)
Given back: 0.984

====

- assayNotes: chemical genetic growth profiling, strain panel (AID 1159580)
- assaySetup: S. cerevisiae deletion strains, growth OD, locus YJL154C, strain vps35
Screen size: about 5,500 compounds; about 2,000 (36%) were called active. Inconclusive results (about 18%) are left out. Cut-off read from the data, not from the text of the source: active = normalized growth mostly below about 0.91 (no sharp cut-off); inconclusive = no clear call, values can overlap the other calls; inactive = mostly above about 0.92. Some of the results follow.
Use one of these outcomes when replying: true = active, false = inactive

Worked set:
molecule	assignedLabel
CCC(C)C(=O)c1c(O)c(C)c2oc3c(C)c(O)c(C(=O)C(C)CC)c(O)c3c2c1O (stereo not drawn)	false
C=C[C@@]1(C)CC(=O)[C@@]2(O)[C@](C)(O1)[C@@H](OC(C)=O)[C@@H](O)C1C(C)(C)CC[C@H](O)[C@@]12C (stereo partly drawn)	false
O=c1[nH]c(=O)n(C2C[C@H](O)[C@@H](CO)O2)cc1C(F)(F)F (stereo partly drawn)	false
Cc1ccc(C(=O)c2ccc(CC(=O)O)n2C)cc1	false
CC1[C@H](C)OC(=O)CC(O)CC(O)CC(O)CCC(O)C(O)C[C@]2(O)CC(O)C(C(=O)O)C(CC(OC3O[C@H](C)[C@@H](O)[C@H](N)[C@@H]3O)/C=C/C=C/C=C/C=C/CC/C=C/C=C/[C@H](C)[C@H]1O)O2 (stereo partly drawn)	false
Cc1cc(/C=C/c2ccc3cc(N(C)C)ccc3[n+]2C)c(C)n1-c1ccccc1	false

Asked: Please let me know the test result on file for O=C(O)COc1ccc(Cl)cc1Cl .
Given back: false

Asked: Which outcome was assigned to CC(=O)Oc1c2c(c(CC=C(C)C)c3c1C(=O)C1=C[C@@H]4CC5C(C)(C)OC(C/C=C(\C)C(=O)O)(C4=O)[C@@]15O3)OC(C)(CCC=C(C)C)C=C2 (stereo partly drawn) in this test?
Given back: false

====

- assayNotes: chemical genetic growth profiling, strain panel (AID 1159580);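 note: tested at 20 µM; growth read once vehicle control cultures reached saturation at 30 °C; 1 = growth at the plate median or of vehicle wells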
- assaySetup: S. cerevisiae deletion strains, growth OD, locus YOR290C, strain snf2
The campaign covered roughly 5,500 compounds. About 2,000 (36%) were called active. Roughly 18% stayed inconclusive and do not appear here. Rule as the data show it: active = normalized growth mostly below about 0.91 (no sharp cut-off); inconclusive = no clear call, values can overlap the other calls; inactive = mostly above about 0.92. Some of the results follow.
One label from this list, please: 1 (yes) = active, 0 (no) = inactive

compound	assignedLabel
CN[C@@H]1C(OC2[C@H](O[C@H]3[C@H](O)[C@@H](O)[C@H](N=C(N)N)[C@@H](O)[C@@H]3N=C(N)N)OC(C)[C@]2(O)CO)OC(CO)C(O)C1O (stereo partly specified)	0 (no)
COc1ccc(-c2oc3cc(OC)c(OC)c(OC)c3c(=O)c2OC)cc1OC	0 (no)

Asked: Recorded call for CCCn1c(=O)c2[nH]c(C3CCCC3)nc2n(CCC)c1=O ?
Given back: 0 (no)

====

- assayNotes: chemical genetic growth profiling, strain panel (AID 1159580);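 note: tested at 20 µM; growth read once vehicle control cultures reached saturation at 30 °C; 1 = growth at the plate median or of vehicle wells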
- assaySetup: S. cerevisiae deletion strains, growth OD, locus YMR223W, strain ubp8
About 2,000 (36%) of roughly 5,500 compounds were called active. About 18% were inconclusive and are not listed. Rule as the data show it: active = normalized growth mostly below about 0.91 (no sharp cut-off); inconclusive = no clear call, values can overlap the other calls; inactive = mostly above about 0.92. The list shows a part of the results.
Your answer must be one of the following: active, inactive

Reference set (5 entries):
molecule	assignedLabel
CN(C)C(=O)Oc1ccc[n+](C)c1	inactive
COC1=CC(=O)OC(CCc2ccc(OC)c(OC)c2)C1 (configuration not stated)	inactive
COc1ccc2oc3ccccc3c(=O)c2c1	active
NC1(C(=O)O)CCCC1	inactive
CN=C(N)NCCCC(N)C(=O)O (configuration not stated)	inactive

// switching to the query molecule
Asked: Outcome logged for COc1cc2c(cc1OC)C1(O)C(=O)c3ccc(O)c(C(=O)O)c3OC1CO2 (configuration not stated) in this assay:
Given back: inactive

====

- assayNotes: chemical genetic growth profiling, strain panel (AID 1159580);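 note: tested at 20 µM; growth read once vehicle control cultures reached saturation at 30 °C; 1 = growth at the plate median or of vehicle wells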
- assaySetup: S. cerevisiae deletion strains, growth OD, locus YOR069W, strain VPS5, hits give low values
Among all 5,500 compounds or so, about 2,000 (36%) were called active. Not shown: some 18% with an inconclusive outcome. The list shows a part of the results.
In this section we review reported normalized growth values for a set of compounds.
A bare number is all that is needed in reply.

compound	normalized growth
CC(=O)O[C@H]1CC[C@@]2(C)C(C[C@@H](OC(C)=O)[C@]3(C)C2CC[C@@]2(C)[C@H](c4ccoc4)OC(=O)[C@H]4O[C@]423)C1(C)C (stereo partly drawn)	1.01
COC1=CC(=O)OC(CCc2ccc(OC)c(OC)c2)C1 (stereo not drawn)	1
O=NN(CCCl)C(=O)NCCCl	0.996
CC(=O)O[C@H]1C[C@@H](OC(C)=O)C(C)(C)C2C[C@@H](OC(C)=O)[C@]3(C)C(CC[C@@]4(C)[C@H](c5ccoc5)OC(=O)[C@H]5O[C@]543)[C@]21C (stereo partly drawn)	0.991
COc1ccc2c(c1)OCC(Cc1ccc(OC)c(OC(C)=O)c1)C2=O (stereo not drawn)	1

Asked: For the compound COc1ccc2c(c1)OCC(Cc1ccc(OC)c(OC)c1)C2=O (stereo not drawn) , give its reported normalized growth.
Given back: 0.993

Asked: Identify the reported normalized growth for the following entry. CC(=O)O[C@@H]1CC2C(C)(C)[C@H](O)CC[C@]2(C)C2CC[C@@]3(C)[C@H](c4ccoc4)OC(=O)C4OC43[C@@]21C (stereo partly drawn)
Given back: 1

Asked: Provide normalized growth value for the following compound: CC(=O)O[C@@H]1CC2C(C)(C)[C@H](O)CC[C@]2(C)C2CC[C@@]3(C)[C@H](c4ccoc4)OC(=O)[C@H]4O[C@]43[C@@]21C (stereo partly drawn)
Given back: 1.01
